- procedure_summary: Plasma and brain concentrations of drugs at the end of the audiogenic seizure experiment (LC-MS)
- Type: in vivo, mouse
- measurement_conditions: DBA/2J, mouse, brain, oral, analyte COMPOUND 1; COMPOUND 1 30 mg/kg 3 h + LTG 30 mg/kg 1 h before stimulus, oral gavage; mean ± SEM; read-out: Brain concentration total
property_name: concentration at 3 h (ng/g)

structure_smiles_string	unit_of_measurement	readout_number
N#Cc1ccc(Cn2ccc(NC(=O)Cc3ccc(C4(C(F)(F)F)CC4)cc3)n2)nc1	ng/g	3290

###

- procedure_summary: Plasma and brain concentrations of drugs at the end of the audiogenic seizure experiment (LC-MS)
- Format: in vivo, mouse
- measurement_conditions: DBA/2J, mouse, brain, oral, analyte LTG; COMPOUND 1 30 mg/kg 3 h + LTG 30 mg/kg 1 h before stimulus, oral gavage; mean ± SEM; read-out: Brain concentration total
property_name: concentration at 1 h (ng/g)

structure_smiles_string	unit_of_measurement	readout_number
Nc1nnc(-c2cccc(Cl)c2Cl)c(N)n1	ng/g	8560
